Target: mu receptor (Mus musculus)
Construct: Five CF-1 male mice (Charles River, Portage, Mich.); from tissue; host or cells: whole living CF-1 male mice (in vivo)
Sequence (P42866 whole entry): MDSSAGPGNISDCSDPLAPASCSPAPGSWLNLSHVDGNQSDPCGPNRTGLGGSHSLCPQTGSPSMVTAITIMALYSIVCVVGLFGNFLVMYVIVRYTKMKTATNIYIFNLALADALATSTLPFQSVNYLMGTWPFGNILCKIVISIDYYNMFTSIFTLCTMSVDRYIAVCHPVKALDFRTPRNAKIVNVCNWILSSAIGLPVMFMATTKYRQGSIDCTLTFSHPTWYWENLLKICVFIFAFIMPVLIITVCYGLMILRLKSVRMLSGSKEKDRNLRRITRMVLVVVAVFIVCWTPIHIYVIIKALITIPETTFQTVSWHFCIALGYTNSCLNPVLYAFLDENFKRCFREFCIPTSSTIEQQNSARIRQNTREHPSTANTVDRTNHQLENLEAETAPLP
Assay: Mouse writhing assay, antagonism of morphine analgesia (mu)
Format: in vivo, CF-1 male mice
Settings: sc, read-out: Mu AD50
Counter-ions that a name gives are not always drawn.
// boundary case: ED50 equal to 0.1 mg/kg maps to no; strictly smaller maps to yes

{"columns": ["MOLECULE", "MEASUREMENT TARGET", "CLASS LABEL"],
 "data": [
  ["CC(C)CCCCN1CC[C@@](C)(c2cccc(O)c2)[C@@H](C)C1 (stereo in doubt) [Example 28, hydrochloride]", "mu receptor (Mus musculus)", "yes"],
  ["C[C@@H]1CN(CC[C@H](O)C2CCCCC2)CC[C@]1(C)c1cccc(O)c1", "mu receptor (Mus musculus)", "yes"],
  ["C[C@H]1CN(CCC2C=CCC2)CC[C@@]1(C)c1cccc(O)c1 (relative stereo) [Example 7, hydrochloride]", "mu receptor (Mus musculus)", "no"],
  ["CC1CN(CCc2cccs2)CCC1(C)c1cccc(O)c1 (stereo not shown) [Example 38, hydrochloride]", "mu receptor (Mus musculus)", "no"],
  ["CC(C)C(O)CCN1CC[C@@](C)(c2cccc(O)c2)[C@@H](C)C1 (relative stereo) [Example 20, hydrochloride]", "mu receptor (Mus musculus)", "no"],
  ["C[C@H]1CN(CCc2ccccc2)CC[C@@]1(C)c1cccc(O)c1 (relative stereo) [Compound D, hydrochloride, reference compound]", "mu receptor (Mus musculus)", "no"],
  ["CC(C)CCCN1CCC(C)(c2cccc(O)c2)C(C)C1 (stereo not shown) [Example 15, hydrochloride]", "mu receptor (Mus musculus)", "no"]
]}
